Data origin, for the record: the supplement of paper PMC4862054

# Tested on: MDA-MB-468
# TEST_DETAILS: normalised response (% of control), CellTox Green; higher = less cell death (100 = DMSO, 0 = benzethonium chloride kill control)
# EXPERIMENTAL_CONDITIONS: incubation time: 72 h
Kindly state normalised response for each of the entries shown.
One number for each entry, in %.

Would you please look over these solved cases?
CCC1=C[C@@H]2CN(C1)Cc1c([nH]c3ccccc13)[C@@](C(=O)OC)(c1cc3c(cc1OC)N(C)[C@H]1[C@@](O)(C(=O)OC)[C@H](OC(C)=O)[C@]4(CC)C=CCN5CC[C@]31[C@@H]54)C2 [Vinorelbine] (100 nM) | 29.7
Cc1ccc(-n2nc(C(C)(C)C)cc2NC(=O)Nc2ccc(OCCN3CCOCC3)c3ccccc23)cc1 [Doramapimod] (10000 nM) | 132

normalised response measured on C#Cc1cccc(Nc2ncnc3cc(OCCOC)c(OCCOC)cc23)c1 [Erlotinib] (100 nM) = 118

* * *

# Tested on: CAL-148
# TEST_DETAILS: drug sensitivity score (DSS), CellTiter-Glo (DSS (AUC-based score)); higher = stronger drug effect (viability inhibition or cytotoxicity); extreme values may be limits of the assay
# EXPERIMENTAL_CONDITIONS: incubation time: 72 h
READOUT_LABEL: drug sensitivity score
Answers are plain numbers.

Would you please look over these solved cases?
CCC1(c2ccc(N)cc2)CCC(=O)NC1=O (stereo unspecified) [Aminoglutethimide] | 0
O=C1CCC(N2C(=O)c3ccccc3C2=O)C(=O)N1 (stereo unspecified) [Thalidomide] | 0
COc1cc2ncnc(Nc3ccc(F)c(Cl)c3)c2cc1NC(=O)/C=C/CN1CCCCC1 | 0
Cc1ccc(-n2nc(C(C)(C)C)cc2NC(=O)Nc2ccc(OCCN3CCOCC3)c3ccccc23)cc1 | 0
C=C(c1ccc(C(=O)O)cc1)c1cc2c(cc1C)C(C)(C)CCC2(C)C | 0

I would be grateful if you could provide drug sensitivity score for each of the following entries.
1. N.N.[Cl][Pt][Cl] [Cisplatin]
2. Cn1c(CCCC(=O)O)nc2cc(N(CCCl)CCCl)ccc21
3. COc1cc([C@@H]2c3cc4c(cc3[C@@H](O[C@@H]3O[C@@H]5CO[C@@H](C)O[C@H]5[C@H](O)[C@H]3O)[C@H]3COC(=O)[C@H]23)OCO4)cc(OC)c1O [Etoposide]
4. O=C(CCCCCCC(=O)Nc1ccc([C@H]2O[C@@H](CSc3nc(-c4ccccc4)c(-c4ccccc4)o3)C[C@@H](c3ccc(CO)cc3)O2)cc1)NO
5. C[C@@H](Oc1cc(-c2cnn(C3CCNCC3)c2)cnc1N)c1c(Cl)ccc(F)c1Cl

[0, 0, 7.19, 0.986, 0]

drug sensitivity score measured on CC(=O)Nc1ccc(C(=O)Nc2ccccc2N)cc1 = 0

* * *

# System: MDA-MB-468
# TEST_DETAILS: normalised response (% of control), CellTox Green; higher = less cell death (100 = DMSO, 0 = benzethonium chloride kill control)
# EXPERIMENTAL_CONDITIONS: incubation time: 72 h
READOUT_LABEL: normalised response (%)
One number for each entry, in %.

Would you please look over these solved cases?
COc1cc2ncnc(Nc3ccc(F)c(Cl)c3)c2cc1NC(=O)/C=C/CN1CCCCC1 [Dacomitinib] (100 nM) | 74.8
CS(=O)(=O)c1ccc(C2=C(c3ccccc3)C(=O)OC2)cc1 [Rofecoxib] (100 nM) | 118
CN(N=O)C(=O)N[C@@H](C=O)[C@@H](O)[C@H](O)[C@H](O)CO [Streptozocin] (10000 nM) | 64.1
C#Cc1cccc(Nc2ncnc3cc(OCCOC)c(OCCOC)cc23)c1 [Erlotinib] (10000 nM) | 97.7
O=P1(NCCCl)OCCCN1CCCl (stereo not drawn) [Ifosfamide] (10000 nM) | 193

I would be grateful if you could provide normalised response for each of the following entries.
1. COc1cc2nccc(Oc3ccc(NC(=O)C4(C(=O)Nc5ccc(F)cc5)CC4)cc3)c2cc1OC [Cabozantinib] (1000 nM)
2. Cn1c(CCCC(=O)O)nc2cc(N(CCCl)CCCl)ccc21 [Bendamustine] (1000 nM)
3. O=C1CCC(N2C(=O)c3ccccc3C2=O)C(=O)N1 (stereo not drawn) [Thalidomide] (100 nM)

1: 158; 2: 121; 3: 127
